Origin of values: the supplement of paper PMC12494721

- Tested on: Ruminococcus gnavus DSM 108212
- methodDescription: fold change of 2-Phenylethylamine concentration vs plate DMSO controls (fold change (ratio)); higher = more amine produced, active = hit call of the paper (significant change in both replicates, either direction)
- measurementConditions: incubation time: 27 h, anaerobic, 37 °C
Structures can show the parent of a compound that is named as a salt.
measureName: fold change of 2-Phenylethylamine concentration

Below, each entry is followed by its recorded fold change of 2-Phenylethylamine concentration result.
compound: Oc1ccc(C2CNCCc3c2cc(O)c(O)c3Cl)cc1 (stereo not drawn) [Fenoldopam] (20 µM)
measurementTarget: Ruminococcus gnavus DSM 108212
assayValue: 1.03 (inactive)
--
compound: CC1(C)[C@@H](O[C@H]2O[C@H](C(=O)O)[C@@H](O)[C@H](O)[C@H]2O[C@@H]2O[C@H](C(=O)O)[C@@H](O)[C@H](O)[C@H]2O)CC[C@]2(C)[C@H]3C(=O)C=C4[C@@H]5C[C@@](C)(C(=O)O)CC[C@]5(C)CC[C@@]4(C)[C@]3(C)CC[C@@H]12 [Glycyrrhizic acid] (50 µM)
measurementTarget: Ruminococcus gnavus DSM 108212
assayValue: 1.1 (inactive)

Consider the record given below.
// lookup fold change of 2-Phenylethylamine concentration | system=Ruminococcus gnavus DSM 108212 | key= CCCCCCCN(CC)CCCC(O)c1ccc(NS(C)(=O)=O)cc1 (stereo not drawn) [Ibutilide fumarate] (20 µM)
0.903 (inactive)
